Give residual activity for every item shown.
target: UniProtKB P51617; assay: radiometric filter-binding kinase assay, Kinase HotSpot; conditions: compound 0.5 µM; ATP 10 µM
Sequence (P51617 whole entry, looked up): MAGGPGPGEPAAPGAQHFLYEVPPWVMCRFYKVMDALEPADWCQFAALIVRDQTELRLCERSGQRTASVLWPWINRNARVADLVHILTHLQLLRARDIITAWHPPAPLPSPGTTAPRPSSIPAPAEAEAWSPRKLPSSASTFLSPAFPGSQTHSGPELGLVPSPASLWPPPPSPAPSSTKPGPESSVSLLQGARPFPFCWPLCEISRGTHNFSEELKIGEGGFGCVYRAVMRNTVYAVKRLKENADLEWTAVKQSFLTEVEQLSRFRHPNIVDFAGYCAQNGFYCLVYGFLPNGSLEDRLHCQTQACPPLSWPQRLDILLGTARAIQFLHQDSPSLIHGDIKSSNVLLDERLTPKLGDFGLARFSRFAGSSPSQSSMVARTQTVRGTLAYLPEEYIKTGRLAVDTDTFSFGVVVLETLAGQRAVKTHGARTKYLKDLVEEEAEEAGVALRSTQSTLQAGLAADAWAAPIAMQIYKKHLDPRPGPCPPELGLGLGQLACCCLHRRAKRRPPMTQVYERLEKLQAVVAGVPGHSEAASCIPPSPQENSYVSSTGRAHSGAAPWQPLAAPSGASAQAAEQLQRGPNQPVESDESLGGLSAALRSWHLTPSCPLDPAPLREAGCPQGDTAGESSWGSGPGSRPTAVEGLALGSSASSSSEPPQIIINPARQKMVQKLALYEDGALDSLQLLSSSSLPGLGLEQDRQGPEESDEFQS
Answer format: numeric, % implied, no suffix.

Reported residual activity (UniProtKB P51617) for entry "COc1cc2ncnc(Nc3ccc(O)c(Br)c3)c2cc1OC" is 75.5

Entry "O=C(O)c1ccc2c3c1cccc3c(=O)n1c3ccccc3nc21" , UniProtKB P51617 data, residual activity value: 61.1

Measured residual activity (UniProtKB P51617), entry "O=C1NC(=O)c2c1c1c3ccccc3[nH]c1c1[nH]c3cc(Br)ccc3c21" : 81.8

###

target: PRKACA (human); experiment: radiometric filter-binding kinase assay, Kinase HotSpot; details: compound 0.5 µM; ATP 10 µM
For each entry below, report its residual activity value.
Respond numerically; units are % and should not be typed.

// sample "COc1cc2c(cc1OC)-c1[nH]nc(Nc3cccc(F)c3)c1C2" , its residual activity was 92.8

For reference, reported residual activity for "CCCCc1c(-c2ccc(O)cc2)[nH]c2nccnc12" stands at 89.7

// sample "COc1cccc(-c2cc(=O)c3ccccc3o2)c1N" , its residual activity was 87.7

// recorded residual activity for "N#CCCc1ccc2c(c1)-c1[nH]c3ccc([N+](=O)[O-])cc3c1CC(=O)N2" : 87.6

Data provenance is the kinase profiling compilation of Christmann-Franck et al. (2016).
